Biological target: Genome polyprotein (dengue virus type 2)
Experiment: Inhibition of dengue virus-1 NS2B-NS3 protease
Design: species or system dengue virus type 1
Peptide text beside a SMILES is read from it.
Reported Metric: pKi
Please report pKi as the negative decimal logarithm of the molar concentration, giving only the number.

What pKi value was documented for this compound, NC(=O)[C@H](Cc1c[nH]c2ccccc12)NC(=O)[C@H](CS)NC(=O)[C@H](Cc1ccc(O)cc1)NC(=O)[C@@H](N)Cc1c[nH]c2ccccc12 (H-WYCW-NH2) ?
5.38

====

Reported Metric: Ki (µM)
Your answer is read as µM, so omit the unit and give the number.

Lab note: need Ki for CC(C)C[C@@H]1NC(=O)[C@H](CCCN)NC(=O)[C@H](C(C)C)NC(=O)[C@H](Cc2ccc(O)cc2)N[C@@H](CCC(=O)O)C(=O)N[C@@H](CC(N)=O)C(=O)[C@@H](Cc2ccccc2)NC(=O)[C@H](Cc2ccccc2)NC(=O)[C@@H]2CCCN2C(=O)[C@@H](Cc2ccccc2)NC1=O on Genome polyprotein (West Nile virus), anyone have it?
2

Lab note: need Ki for N=C(N)N[C@H]1CC[C@H](CNC(=O)[C@H](CCCCN)NC(=O)[C@H](CCCCN)NC(=O)Cc2ccc(Cl)c(Cl)c2)CC1 on Genome polyprotein (West Nile virus), anyone have it?
0.13
